Kindly state MIC for each of the entries shown.
system: Candida auris CBS12373 KCTC 17810; experiment: Antifungal MIC assay, extended panel; type: cell-based; settings: Candidozyma auris; comparator antifungals; MIC = ≥80% inhibition; read-out: MIC* Candida auris CBS12373
One number for each entry, in µg/mL.

Worked cases, answers included:
INSERT INTO results (compound, resultunits, obsvalue) VALUES
  ('CC[C@@H]([C@H](C)O)n1ncn(-c2ccc(N3CCN(c4ccc(OC[C@@H]5CO[C@@](Cn6cncn6)(c6ccc(F)cc6F)C5)cc4)CC3)cc2)c1=O [Posaconazole, reference compound]', 'µg/mL', 2),
  ('CCC(C)n1ncn(-c2ccc(N3CCN(c4ccc(OCC5COC(Cn6cncn6)(c6ccc(Cl)cc6Cl)O5)cc4)CC3)cc2)c1=O (centres unmarked) [Itraconazole, reference compound]', 'µg/mL', 2);

Turning now to a further compound:
Reported MIC of C[C@@H](c1ncncc1F)[C@](O)(Cn1cncn1)c1ccc(F)cc1F [Voriconazole, reference compound] : 0.156
